Target: EGFR L858R/T790M (H1975-clone #36, homozygous) (Homo sapiens, UniProt P00533, L858R/T790M)
Construct: designed to specifically target WT EGFR but preserve the L858R/T790M copy; host or cells: H1975-clone #36
Sequence (P00533 25-1210 T790M/L858R): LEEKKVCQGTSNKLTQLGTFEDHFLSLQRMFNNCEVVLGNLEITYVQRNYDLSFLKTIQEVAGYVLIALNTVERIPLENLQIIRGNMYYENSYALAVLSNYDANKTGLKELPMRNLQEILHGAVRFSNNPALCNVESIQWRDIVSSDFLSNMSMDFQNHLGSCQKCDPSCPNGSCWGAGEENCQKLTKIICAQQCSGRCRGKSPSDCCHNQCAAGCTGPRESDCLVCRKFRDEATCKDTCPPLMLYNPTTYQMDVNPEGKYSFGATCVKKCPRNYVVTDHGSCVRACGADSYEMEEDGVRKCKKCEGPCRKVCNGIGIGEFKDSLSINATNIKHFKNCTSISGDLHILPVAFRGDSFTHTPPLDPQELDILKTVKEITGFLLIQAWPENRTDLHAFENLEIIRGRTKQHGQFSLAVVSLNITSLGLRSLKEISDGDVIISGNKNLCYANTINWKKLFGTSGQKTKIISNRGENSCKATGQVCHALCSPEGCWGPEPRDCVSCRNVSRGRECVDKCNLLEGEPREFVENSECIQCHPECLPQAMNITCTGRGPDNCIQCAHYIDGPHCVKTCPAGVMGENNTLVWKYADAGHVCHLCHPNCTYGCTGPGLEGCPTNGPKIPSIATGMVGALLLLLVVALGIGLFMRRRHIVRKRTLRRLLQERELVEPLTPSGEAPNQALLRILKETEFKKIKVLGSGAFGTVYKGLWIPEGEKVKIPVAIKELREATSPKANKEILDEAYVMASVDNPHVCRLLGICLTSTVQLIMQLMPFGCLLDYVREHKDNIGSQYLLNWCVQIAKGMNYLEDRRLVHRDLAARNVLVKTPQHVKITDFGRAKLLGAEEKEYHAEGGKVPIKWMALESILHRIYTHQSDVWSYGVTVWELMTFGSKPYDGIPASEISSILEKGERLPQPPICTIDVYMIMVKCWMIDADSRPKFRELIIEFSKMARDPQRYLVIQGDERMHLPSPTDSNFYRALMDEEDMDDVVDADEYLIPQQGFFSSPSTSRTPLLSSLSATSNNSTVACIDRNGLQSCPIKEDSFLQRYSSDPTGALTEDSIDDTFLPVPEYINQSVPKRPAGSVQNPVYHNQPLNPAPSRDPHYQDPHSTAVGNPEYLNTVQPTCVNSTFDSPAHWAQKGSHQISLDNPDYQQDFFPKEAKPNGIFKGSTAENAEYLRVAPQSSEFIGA
Test: EGFR degradation HTRF assay, H1975-clone #36 cells
Format: cell-based
Details: H1975 #36, 16h treatment
Parameter Measured: DC50 (nM)

Query: Could you tell me which DC50 is on file for CP(C)(=O)c1c(Nc2nc(Nc3ccc(N4CCN(C5CN(CC6CN(c7ccc8c(c7)C(=O)N(C7CCC(=O)NC7=O)C8=O)C6)C5)CC4)c(F)c3)ncc2Br)ccc2nccnc12 (centres unmarked) [Example 259] ?
Response: 4.69

Query: // lookup DC50 for COc1cc(N2CCC(N3CCN(C(=O)CCCCN4CCN(c5ccc6c(c5)C(=O)N(C5CCC(=O)NC5=O)C6=O)CC4)CC3)CC2)ccc1Nc1ncc(Cl)c(Nc2ccccc2N(C)S(C)(=O)=O)n1 (centres unmarked) [Example 128]
Response: 11.5

Query: Name the recorded DC50 for CCc1cc(Nc2ncc(Br)c(Nc3ccc4nccnc4c3P(C)(C)=O)n2)c(OC)cc1N1CCC(N2CCN(CCc3ccc(C4CCC(=O)NC4=O)c(OC)c3)CC2)CC1 (centres unmarked) [Example 2] .
Response: 3720

P = COc1cc(N2CCC(N3CCN(CCc4ccc(C5CCC(=O)NC5=O)cc4)CC3)CC2)ccc1Nc1ncc(Cl)c(Nc2ccccc2N(C)S(C)(=O)=O)n1 (centres unmarked) [Example 119]
Q = COc1cc(N2CCN(CC3CCN(c4ccc(C5CCC(=O)NC5=O)cc4)CC3)CC2)ccc1Nc1ncc(Br)c(Nc2ccc3nccnc3c2P(C)(C)=O)n1 (centres unmarked) [Example 89]
Query: For the two items P and Q , which reports the higher DC50 value? Refer to your chosen entry by its label in the reply.
Response: P
